- targetUnderTest: the molecule itself
- protocolNotes: crystal structure; vapor diffusion crystals grown at 19°C, protein supplemented with 0.5%-1% DDM; data at 100 K; molecular replacement with WT ReAV (PDB 7os5); homodimer(s) in the asymmetric unit
measurementType: binding result

ReAV C135A (enzyme, Rhizobium etli, Homodimer in the crystal (one dimer per asymmetric unit); also called C135A mutant; Rhizobium etli Class 3 L-asparaginase ReAV C135A mutein; source: E. coli BL21 Gold, purified (HisTrap, TEV digestion, Superdex 200)) MTPSEDFVVTDRGGIVENSHRVHAAVVDAKGRLLYALGNPTRMTLARSAAKPAQALAILETEGVAGYGFDDADIALMCASHSSEDRHIARTRAMLSKIKAEEADLRCGGHPSLSEMVNRSWIKQDFIPTAVCSNASGKHVGMLAGARAIGAGTDGYHLPDHPMQGRVKRTVAELCDLDAGDVEWGTDGCNLPTPAFPLDRLGRIYAKLASAADGSDAGEGQSTRCAALAHIFRAMARHPEMVAGEGRYCTMLMRAFDGALVGKLGADASYAIGVRASDATRQLGTDGALGISVKIEDGNLEMLYAVVTELLERLGIGSPDVRSQLASFHHPQRVNTMGVTTGGVSFPFKLRGSKSNVDDPRLAAVAR
binds
ReAV K138A (enzyme, Rhizobium etli, Homodimer in the crystal (two dimers per asymmetric unit); also called K138A mutant; Rhizobium etli Class 3 L-asparaginase ReAV K138A mutein; source: E. coli BL21 Gold, purified (HisTrap, TEV digestion, Superdex 200)) MTPSEDFVVTDRGGIVENSHRVHAAVVDAKGRLLYALGNPTRMTLARSAAKPAQALAILETEGVAGYGFDDADIALMCASHSSEDRHIARTRAMLSKIKAEEADLRCGGHPSLSEMVNRSWIKQDFIPTAVCSNCSGAHVGMLAGARAIGAGTDGYHLPDHPMQGRVKRTVAELCDLDAGDVEWGTDGCNLPTPAFPLDRLGRIYAKLASAADGSDAGEGQSTRCAALAHIFRAMARHPEMVAGEGRYCTMLMRAFDGALVGKLGADASYAIGVRASDATRQLGTDGALGISVKIEDGNLEMLYAVVTELLERLGIGSPDVRSQLASFHHPQRVNTMGVTTGGVSFPFKLRGSKSNVDDPRLAAVAR
binds
ReAV C189A (enzyme, Rhizobium etli, Homodimer in the crystal (one dimer per asymmetric unit); also called C189A mutant; Rhizobium etli Class 3 L-asparaginase ReAV C189A mutein; source: E. coli BL21 Gold, purified (HisTrap, TEV digestion, Superdex 200)) MTPSEDFVVTDRGGIVENSHRVHAAVVDAKGRLLYALGNPTRMTLARSAAKPAQALAILETEGVAGYGFDDADIALMCASHSSEDRHIARTRAMLSKIKAEEADLRCGGHPSLSEMVNRSWIKQDFIPTAVCSNCSGKHVGMLAGARAIGAGTDGYHLPDHPMQGRVKRTVAELCDLDAGDVEWGTDGANLPTPAFPLDRLGRIYAKLASAADGSDAGEGQSTRCAALAHIFRAMARHPEMVAGEGRYCTMLMRAFDGALVGKLGADASYAIGVRASDATRQLGTDGALGISVKIEDGNLEMLYAVVTELLERLGIGSPDVRSQLASFHHPQRVNTMGVTTGGVSFPFKLRGSKSNVDDPRLAAVAR
binds
